# Test system: Puccinia triticina
# Assay Text: Wheat brown rust (PUCCRT) disease control on wheat seedlings
# Assay type: in vivo
# Parameters: key: A: > 80; B: ≤ 80; C: Not Tested; D: No Activity Observed in the Reported Assay
# Condition: low volume application, 125.1 g/H, 1 Day Protectant
Measured Quantity: PUCCRT 1DP, LV activity at 125.1 g/H (% Control rating)

{"columns": ["Compound", "Reported"],
 "data": [
  ["COc1ccnc(C(=O)NC(C)C(=O)OC(C)COC(=O)C(C)C)c1OCOC(=O)C(C)C (stereo not shown)", "D"],
  ["CCCOC[C@@H](Oc1ccccc1)[C@H](C)OC(=O)[C@H](C)NC(=O)c1nccc(OC)c1OC(C)=O", "A (> 80)"],
  ["C=CC[C@@H](OCc1ccccc1)[C@H](C)OC(=O)[C@H](C)NC(=O)c1nccc(OC)c1OCOC(C)=O", "A (> 80)"],
  ["CCC(CC)[C@@H](Oc1cc(F)ccc1F)[C@H](C)OC(=O)[C@@H](NC(=O)c1nccc(OC)c1OCOC(C)=O)C(C)C", "A (> 80)"]
]}

---

# System: Zymoseptoria tritici
# Assay Text: Leaf blotch of wheat (SEPTTR) disease control on wheat seedlings
# Format: in vivo
# Condition: HV application at 100 ppm; 3 Day Curative; wheat leaf blotch
Measured Quantity: SEPTTR 3DC disease control rating, HV activity

{"columns": ["Compound", "Test System", "Reported"],
 "data": [
  ["CC[C@H](Cc1ccccc1)[C@@H](Oc1ccccc1)[C@H](C)OC(=O)[C@H](C)NC(=O)c1nccc(OC)c1O [Cmpd 311]", "Zymoseptoria tritici", "B (≤ 80)"],
  ["CCC(CC)[C@@H](Oc1ccc(F)cc1)[C@H](C)OC(=O)[C@@H](NC(=O)c1nccc(OC)c1O)C(C)C [Cmpd 405]", "Zymoseptoria tritici", "B (≤ 80)"],
  ["CCC(C)C(Oc1ccccc1)C(C)OC(=O)C(C)NC(=O)c1nccc(OC)c1O (stereo not shown) [Cmpd 440]", "Zymoseptoria tritici", "A (> 80)"],
  ["CC[C@@H](CCOC)[C@@H](Oc1ccccc1)[C@H](C)OC(=O)[C@H](C)NC(=O)c1nccc(OC)c1O [Cmpd 305]", "Zymoseptoria tritici", "A (> 80)"]
]}

---

# System: Puccinia triticina
# Assay Text: Wheat brown rust (PUCCRT) disease control on wheat seedlings
# Type: in vivo
# Condition: low volume application, 125.1 g/H, 3 Day Curative
Measured Quantity: PUCCRT 3DC, LV activity at 125.1 g/H (% Control rating)

Solved entries (count: 5):
{"columns": ["Compound", "Reported"],
 "data": [
  ["COc1ccnc(C(=O)NC(C)C(=O)OC(C)COCC2CC2)c1OCOC(C)=O (stereo not shown)", "B (≤ 80)"],
  ["CC[C@@H](CCC(C)C)[C@H](OCC1CC1)[C@H](C)OC(=O)[C@H](C)NC(=O)c1nccc(OC)c1OCOC(C)=O", "A (> 80)"],
  ["COc1ccnc(C(=O)N[C@@H](C)C(=O)O[C@@H](C)[C@H](Oc2ccc(Cl)cc2)C(C)C)c1OCOC(=O)C(C)C", "A (> 80)"],
  ["CCC(CC)[C@@H](OCC1CC1)[C@H](C)OC(=O)[C@H](C)NC(=O)c1nccc(OC)c1OC(C)=O", "A (> 80)"],
  ["CCC(CC)[C@@H](Oc1cc(F)ccc1F)[C@H](C)OC(=O)[C@H](C)NC(=O)c1nccc(OC)c1OCOC(C)=O", "A (> 80)"]
]}

Provide PUCCRT 3DC, LV activity at 125.1 g/H (% Control rating) values for the following items, in order.
1. CCC(CC)[C@@H](Oc1ccc(F)cc1)[C@H](C)OC(=O)[C@H](C)NC(=O)c1nccc(OC)c1OCOC(C)=O
2. CCC(CC)[C@@H](Oc1ccc(Cl)cc1Cl)[C@H](C)OC(=O)[C@H](C)NC(=O)c1nccc(OC)c1OC(C)=O
3. COc1ccnc(C(=O)N[C@@H](C)C(=O)O[C@@H](C)[C@H](Oc2ccc(C(F)(F)F)cc2)c2ccccc2)c1OC(C)=O
4. COCC[C@@H](OCc1ccccc1)[C@H](C)OC(=O)[C@H](C)NC(=O)c1nccc(OC)c1OCOC(C)=O
5. CCC(CC)[C@@H](OCC1CC1)[C@H](C)OC(=O)[C@H](C)NC(=O)c1nccc(OC)c1OCOC(C)=O

Found:
1: A (> 80); 2: B (≤ 80); 3: B (≤ 80); 4: B (≤ 80); 5: A (> 80)

Batch request: PUCCRT 3DC, LV activity at 125.1 g/H (% Control rating) per item, same order as input.
1. COc1ccnc(C(=O)N[C@H](C(=O)O[C@@H](C)[C@H](Oc2ccc(C(F)(F)F)cc2)c2ccccc2)C(C)C)c1OC(C)=O
2. COc1ccnc(C(=O)NC(C)C(=O)OC(C)COCc2ccccc2)c1OCOC(C)=O (stereo not shown)
3. COc1ccnc(C(=O)N[C@@H](C)C(=O)O[C@@H](C)[C@H](Oc2ccc(Cl)cc2Cl)C(C)C)c1OCOC(C)=O
4. CCC(CC)[C@@H](Oc1ccc(Cl)cc1)[C@H](C)OC(=O)[C@@H](NC(=O)c1nccc(OC)c1OCOC(C)=O)C(C)C

Found:
B (≤ 80)
B (≤ 80)
A (> 80)
B (≤ 80)

I would be grateful if you could provide PUCCRT 3DC, LV activity at 125.1 g/H (% Control rating) for each of the following entries.
1. COc1ccnc(C(=O)N[C@@H](C)C(=O)O[C@@H](C)[C@H](Oc2ccc(Cl)cc2Cl)C(C)C)c1OCOC(=O)C(C)C
2. COc1ccnc(C(=O)N[C@@H](C)C(=O)O[C@@H](C)[C@H](Oc2ccc3ccccc3c2)C(C)C)c1OC(C)=O
3. CCCOCC(C)OC(=O)C(C)NC(=O)c1nccc(OC)c1OCOC(=O)C(C)C (stereo not shown)

Found:
A (> 80)
A (> 80)
D

Look up PUCCRT 3DC, LV activity at 125.1 g/H (% Control rating) for the entries below, preserving their order.
1. COc1ccnc(C(=O)N[C@@H](C)C(=O)O[C@@H](C)[C@H](Oc2cc(F)cc(Cl)c2)c2ccccc2)c1OCOC(C)=O
2. CC[C@H](C)[C@H](NC(=O)c1nccc(OC)c1OCOC(C)=O)C(=O)O[C@@H](C)[C@H](Oc1cc(F)ccc1F)C(C)C
3. CCC(CC)[C@@H](Oc1ccccc1Cl)[C@H](C)OC(=O)[C@H](C)NC(=O)c1nccc(OC)c1OCOC(C)=O
4. CCC(CC)[C@@H](Oc1cccc(Cl)c1)[C@H](C)OC(=O)[C@@H](NC(=O)c1nccc(OC)c1OCOC(C)=O)C(C)C
5. CCCOCC(C)OC(=O)C(C)NC(=O)c1nccc(OC)c1OC(C)=O (stereo not shown)
6. COc1ccnc(C(=O)NC(C)C(=O)OC(C)COc2ccccc2)c1OC(=O)C1CC1 (stereo not shown)
7. CCC(CC)[C@@H](Oc1ccc(C(F)(F)F)cc1)[C@H](C)OC(=O)[C@@H](NC(=O)c1nccc(OC)c1OCOC(C)=O)C(C)C

Found:
1: B (≤ 80); 2: A (> 80); 3: A (> 80); 4: B (≤ 80); 5: D; 6: D; 7: B (≤ 80)

Batch request: PUCCRT 3DC, LV activity at 125.1 g/H (% Control rating) for each of the following compounds.
1. CC[C@@H](CCOC)[C@@H](Oc1ccccc1)[C@H](C)OC(=O)[C@H](C)NC(=O)c1nccc(OC)c1OCOC(C)=O
2. COc1ccnc(C(=O)N[C@@H](C)C(=O)O[C@@H](C)[C@H](Oc2cc(F)cc(Cl)c2)C(C)C)c1OC(C)=O
3. COc1ccnc(C(=O)NC(C)C(=O)OC(C)COC2CCCC2)c1OCOC(C)=O (stereo not shown)
4. COc1ccnc(C(=O)N[C@@H](C)C(=O)O[C@@H](C)[C@H](Oc2ccc(C(F)(F)F)cc2)C(C)C)c1OCOC(C)=O

Found:
A (> 80)
A (> 80)
A (> 80)
A (> 80)
